outcome measure: melting point

Lookup result for NC(=O)/C=C1\CC(O)c2ccc(F)cc21 (stereo unspecified) ; measured melting point: 166 to 168 °C

Entry under test: `OCc1ccc(Br)c(CO)c1` . Its melting point was 106 to 108 °C

In plain terms, `O=C(O)COc1nc2ccccc2s1` has a documented melting point of 168 to 170 °C

melting point reported for this compound `COc1ccc(S(=O)(=O)C[N+](=O)[O-])c2ccccc12` : 109 to 110 °C

Entry under test: `COc1cccc(CNC(=O)c2nc3c(cc(C)n3S(C)(=O)=O)c(=O)[nH]2)c1` . Its melting point was 211 to 213 °C

Entry `O=C1CCC(=O)N1SCc1ccc([N+](=O)[O-])cc1` ; melting point = 146 to 148 °C

* * *

Can you tell me melting point for the items I'm about to list?

// melting point value for `COc1cc(S(=O)(=O)N2CCNCC2)cc(OC)c1OC` : 131 to 133 °C

`CCOc1nn(Cc2ccc(OCc3csc(-c4ccccc4)n3)cc2)cc1CCC(=O)O` has a reported melting point of 114 to 115 °C

Summary for this compound, `N#CCC(C#N)=NNc1c(Cl)cc(C(F)(F)F)cc1Cl` : melting point is 80 to 82 °C

Lab note: `COC(=O)Cc1ccc(OCCN)c(OC)c1` gave melting point of 77 to 80 °C

So, `COc1cc(C(F)(F)F)oc(=O)c1` ? Its melting point was 61 °C

Query `CCCOc1ccc(OCCCCC(=O)O)c(C=O)c1O` yields melting point of 78 to 79 °C

* * *

What melting point was measured for each of the following?

According to the records, this molecule `CC1(C)C(=O)N(c2ccc([N+](=O)[O-])c(C(F)(F)F)c2)C(=O)N1CCCCCCN1C(=O)N(c2ccc([N+](=O)[O-])c(C(F)(F)F)c2)C(=O)C1(C)C` displays melting point of 187 to 188 °C

Documented melting point of CC(C)(C)NC(=O)C1CC(Cl)CN1C(=O)C(O)C(Cc1ccccc1)NC(=O)C(CC(N)=O)NC(=O)C(COC1CCCO1)NC(=O)OCc1ccccc1 (stereo not drawn) : 64 to 71 °C

Kindly note the recorded melting point for `CS(=O)(=O)Nc1ccc2c(c1)C(=O)CC1(CCN(CCc3ccc(N)c(N)c3)CC1)O2` , which is 109 to 112 °C

* * *

Consider the following molecules; for each one, report its melting point.

The recorded melting point for `CC(=O)C1(c2cccc(OCc3ccc4c(ccc(=O)n4C)c3)c2)CCOCC1` is 125 to 126 °C

What the record says about `CCC(=O)c1sc(Oc2ccc3c(c2)OCO3)c2c1CCc1cnn(C)c1-2` : melting point is 99 to 100 °C

Reported melting point for `O=C(O)Cc1c(C(=O)c2ccc(Cl)cc2)[nH]c2ccc(Cl)cc12` was 220 to 224 °C

Recorded result, CC(=O)c1ccc2c(c1)OC(C(N)=O)CO2 (stereo unspecified) , melting point: 212 °C

Recorded result, `N#Cc1ccc(N)cc1N` , melting point: 102 to 103 °C

Per the record, `Cc1cc(F)ccc1-n1c(CF)nc2ccc([N+](=O)[O-])cc2c1=O` has melting point of 171 to 173 °C

Record COC(=O)C1=C(C)Nc2ccccc2SC1c1ccc([N+](=O)[O-])cc1 (stereo unspecified) . Reported melting point: 150 to 152 °C

The recorded melting point for CN1CCN=C1C(O)(c1ccccc1)c1ccccn1 (stereo unspecified) is 105 to 108 °C

# melting point of `Oc1ccc(-c2nc(COc3ccc(CCCn4ccnc4)cc3)co2)cc1` = 182 to 183 °C

Briefly, melting point measured for `CCOC(=O)Nc1cc(N)ccc1F` : 88 to 89 °C

For reference, reported melting point for `O=C1NC(=O)C2(CCNCC2)N1Cc1ccccc1` stands at 195 to 196 °C

The reported melting point of the molecule CC(N)Cn1ncc2ccc3oc(C(=O)NCC(C)O)cc3c21 (stereo unspecified) was 190 to 191 °C

In plain terms, `O=C(O)c1cc(OCCCOc2ccccc2-c2ccccc2)cc(OCCCOc2ccccc2-c2ccccc2)c1` has a documented melting point of 110 to 113 °C

Data point: OC(CCc1ccoc1)c1cnc2sc3c(n12)CCCCC3 (stereo unspecified) ; melting point = 153 to 155 °C

What the record says about `CCOCc1nc2c(N)nc3c(c2n1NC(C)C)CCCC3` : melting point is 144 to 146 °C

Lab note: CC(C)(C)NCC(O)COc1cccc2[nH]cc(Cl)c12 (stereo unspecified) gave melting point of 95 to 97 °C

Noted for CCOC(=O)c1c2n(c3c(F)c(N4CCC(NC(=O)OC(C)(C)C)C4)c(F)cc3c1=O)C(C)S2 (stereo unspecified) : its melting point reads 174 to 176 °C

get_value(item= `COc1ccc(-c2ocnc2-c2cc(OC)c(OC)c(OC)c2)cc1F` , readout=melting point) returns 139 to 140 °C

response.value for `Cc1ccc(S(=O)(=O)Nc2cccc([N+](=O)[O-])c2N)cc1` (field: melting point) = 195 °C

Form: molecule = `COC(=O)c1nc2n(n1)-c1cc(Cl)ccc1N(c1ccc(Cl)cc1Cl)C2` ; melting point = 264 to 266 °C

Query N#CCCN1C(=O)C(O)N=C(c2ccccc2Cl)c2cc(Cl)ccc21 (stereo unspecified) yields melting point of 198 to 202 °C

* * *

outcome measure: melting point

// field: melting point; key: `CCSc1cc(C)nc(SCC)c1NC(=O)CCCCCCCSc1nc2cccc(C(F)(F)F)c2o1` ; value = 99 to 100 °C

Entry under test: CN1CCC(O)(C(c2cc(Cl)ccc2F)n2cccc2)CC1 (stereo not given) . Its melting point was 124 to 125 °C

The recorded melting point for `O=C(Oc1ccc(-c2ccc(O)c([N+](=O)[O-])c2)cc1)c1ccccc1` is 163 °C

Reported melting point for `Cc1ccnc2c1C(=O)c1ccccc1-2` was 130 to 131 °C

Lab note: measured melting point of `Cc1ccc2c(c1)N=C(NCc1cccnc1)c1ccccc1N2` was 186 to 187 °C

The reported melting point of the compound `COC(=O)c1c(-c2ccccc2Cl)c2cc(C)c(C)cc2n(C)c1=O` was 202 to 203 °C

According to the records, this compound `O=C(O)c1cnn(-c2ccc(Cl)cc2Cl)c1C(F)(F)F` displays melting point of 154 to 155 °C

compound `O=[N+]([O-])c1cc(S(=O)(=O)NCCO)sc1Cl` , melting point observed: 99 °C

The value of melting point measured for the compound `CNC(=S)n1nc(N=CN(C)C)nc1N` turned out to be 184 to 188 °C

The recorded melting point for `CSc1sc(C(=O)N2CCCCCC2)c2c1-c1oncc1C(C)(C)C2` is 99 to 101 °C

* * *

Could you please report measured melting point for the items listed next?
Non-standard residues stand in square brackets, D forms with d. Residues, ends and D or L forms follow the SMILES beside them. ξ: configuration not given here. *: point of attachment. ξPhe(4-NO2) = NC(Cc1ccc([N+](=O)[O-])cc1)C(=O)O; Boc = CC(C)(C)OC(=O)*; OBn = c1ccc(CO*)cc1

In plain terms, Oc1cccc2c1CC(N1CCN(c3ncccn3)CC1)CC2 (stereo not given) has a documented melting point of > 300 °C

So for `COc1ccc(COc2c(OC)cc(C=C(C(=O)OC(C)C)P(=O)(OC)OC)cc2OC)cc1` , the logged melting point turned out to be 68 to 69 °C

Per the records, this compound ( `NS(=O)(=O)c1cc(C=O)cs1` ) has melting point equal to 146 to 149 °C

CC(C)(C)OC(=O)NC(Cc1ccc([N+](=O)[O-])cc1)C(=O)NCC(=O)OCc1ccccc1 (stereo not given) (Boc-[ξPhe(4-NO2)]-Gly-OBn) yielded melting point of 115 to 118 °C

Sure, the documented melting point for `Cc1nc(C)c(Cl)c(NCc2ccc(OCc3ccccc3)cn2)n1` is 130 to 131 °C

Value of melting point reported for the compound `O=C(c1ccc(-c2ccccc2)cc1)N1Cc2ccccc2Nc2ccccc21` is 180 to 182 °C

Form field melting point, entry `O=[N+]([O-])c1cnn2c1-c1ccccc1NC2` : 156 to 157 °C

Record `COC(=O)/C=C/c1ccc2c(c1)C(C)(C)CC(=O)N2` . Reported melting point: 174 to 175 °C

Recorded result, O=C1C2Cc3c(nc(Br)n3Cc3ccccc3)CN2C(=O)N1c1ccccc1 (stereo not given) , melting point: 267 to 269 °C

Memo: CC1Cc2c(-n3nc(C#N)c(=O)[nH]c3=O)ccc(Cl)c2O1 (stereo not given) , reported melting point: 244 to 245 °C

Looking up O=C(C=Cc1ccc(COC2OC(CO)C(O)C(O)C2O)o1)c1ccccc1 (stereo not given) , I found its melting point recorded as 127 °C

Given item `C=CCNc1ccc(C(=O)O)cc1[N+](=O)[O-]` , the value recorded as its melting point is 195 to 200 °C

# compound `Cn1nc(-c2c(F)cccc2Cl)nc1COc1ccc(C(C)(C)C)cc1` ; its melting point = 84 to 86 °C

Record CC(C)(C)c1ccc(OCC(O)CN2CCC3(CC2)CSC2=C(O3)c3cc(N4CCOCC4)ccc3C(=O)C2=O)cc1 (stereo not given) , field melting point: 107 to 109 °C

Sample `CS(=O)(=O)c1cc([N+](=O)[O-])c(C(=O)O)cc1N(CCBr)CCBr` ; melting point observed: 174 to 176 °C

Entry `CCC(=O)NCC=C1CCc2ccc3ncoc3c21` , melting point reported as 148 to 150 °C

Data point: `CCCCCCCCCCNC1=CC(=O)c2c(OC)ccc(OC)c2C1=O` ; melting point = 86 to 87 °C

# melting point (compound: `CCCCCCCCCCCCCCCCCCOc1cc(OCc2ccc3ccccc3n2)cc(N(CC(=O)OC)CC(=O)OC)c1` ) is 76 to 79 °C

Value of measured melting point for the entry `Cc1cc(-c2sc(N3CCN(Cc4ccc(C(F)(F)F)cc4)C3=O)nc2C)on1` : 201 to 203 °C

Note to self: melting point recorded for `O=C1c2ccccc2C(=O)N1CCCCN1CCN(c2ncccn2)CC1` was 138 °C
